Data provenance: paper PMC4552634

System: P. falciparum stage V gametocytes
Design: BacTiter-Glo ATP luminescence viability of purified stage V gametocytes in 384-well plates, per cent inhibition versus DMSO
details: 48 h, 5 µM; inhibitor
The whole screen tested about 13,000 compounds, of which about 3,200 (25%) showed an effect of 50% or more. The list shows a part of the results.
# if value of % Inhibition reaches 20%, tag yes; if it stays below, tag no

# count of solved cases: 4
Q: Decide: is the reported value of % Inhibition for CC(C)(C)OC(=O)/C=C(\C(=O)OCc1ccc([N+](=O)[O-])cc1)c1csc(NC(c2ccccc2)(c2ccccc2)c2ccccc2)n1 equal to or greater than 20%?
A: yes

Q: Cool, now O=C(Nc1ccc(OC2CCN(Cc3ccc(F)cc3)CC2)c(Cl)c1)c1ccccc1
A: no

Q: Cool, now CCOC(=O)/C(=N\OC(C(=O)OC(C)(C)C)c1ccccc1)c1csc(NC(c2ccccc2)(c2ccccc2)c2ccccc2)n1 (centres unmarked)
A: yes

Q: Cool, now CC(CN(C)C)C(=O)Nc1cccc(-c2ccc(-c3nc4cc(F)ccc4[nH]3)s2)c1 (centres unmarked)
A: no

More entries:
Q: Decide: is the reported value of % Inhibition for O=C(/C=C/c1ccc(Cl)c(Cl)c1)NCCCCCN1CCC(c2[nH]nc(-c3ccccc3)c2Br)CC1 equal to or greater than 20%?
A: no

Q: Cool, now CCOc1ccc(NC(C)=O)c(O)c1
A: no

Q: Cool, now CCOc1ccc(Br)cc1/C=C/C(=O)Nc1ccc2c(c1)CN(C)CCC2
A: no

Q: Cool, now O=C(Nc1cccc(CN2CCCN(Cc3ccc(O)cc3)CC2)c1)c1ccc2ccccc2n1
A: yes
